- Assayed system: T1, Human Siglec-6 (human, UniProt O43699 27-453)
- T1 construct: Expressed on transfected CHO cells; also called HuSiglec-6
- T1 sequence (O43699 other isoform, or with tags, fused parts or gaps): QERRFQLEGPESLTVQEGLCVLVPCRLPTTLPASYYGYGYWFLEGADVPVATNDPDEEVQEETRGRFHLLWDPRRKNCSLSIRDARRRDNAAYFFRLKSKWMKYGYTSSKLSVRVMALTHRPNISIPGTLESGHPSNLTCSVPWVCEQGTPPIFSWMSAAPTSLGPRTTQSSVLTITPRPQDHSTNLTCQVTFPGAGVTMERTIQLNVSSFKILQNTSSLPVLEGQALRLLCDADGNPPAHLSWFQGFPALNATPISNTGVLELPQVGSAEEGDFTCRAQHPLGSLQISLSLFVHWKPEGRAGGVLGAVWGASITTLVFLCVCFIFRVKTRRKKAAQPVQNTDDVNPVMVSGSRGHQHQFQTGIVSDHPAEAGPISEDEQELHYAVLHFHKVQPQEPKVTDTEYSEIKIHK
- Protocol description: flow cytometry, CHO transfectants
Measured parameter: binding result

>  <Binder>
mAb1 (antibody, human IgG1, V domains shown) VH: DVQLQESGPGLVKPSQSLSLTCTVTGYSITGGFAWNWIRQFPGNTLEWMGYIGYGGSTSYNPSLNSRISITRDTSKNHFFLQFNSVTTDDSATYYCARGDYLFAYWGQGTLVTVSA VL: DIVMTQSHKFMSTSVGDRVSITCKASQDVNTAVAWYQQKPGQSPKLLIYSASYRYTGVPDRFTGSGSGTDFTFTISSVQAEDLAVYYCQQHYSTPRTFGGGTKLEIK

>  <Result>
no binding

$$$$
>  <Binder>
mAb4 (antibody, human IgG1, V domains shown) VH: DVQLVESGGDLVKPGGSLKLSCAASGFAFSSYDMSWVRQSPEKRLEWIAHIGSGGGNIYYPDTVKGRFTISRDNAKNTLYLQMRSLKSEDTAMYYCARLIFTTGFYGMDYWGQGTSVTVSS VL: DIQMTQTTSSLSASLGDRVTISCRASQDISSYLNWYQQKPDGTIKLLIYYTSRLHSGVPSRFSGSGSGTDYSLTISNLDQDDIATYFCQQGNALPWTFGGGTKLEIK

>  <Result>
no binding

$$$$
>  <Binder>
mAbF (antibody, human IgG1, V domains shown) VH: QVQLQQSGPEVVRPGVSVKISCKGSGYTFTDYSMHWVKQSHAKSLEWIGVISTYNGNTNYNQKFKGKATMTVDKSSSTAYMELARLTSEDSAIYYCARRGYYGSSSWFGYWGQGTLVTVSA VL: DIVMTQSQKFMSTSVGDRVSVTCKASQNVGTDVAWYQQKPGQSPEALIYSASYRYSGVPDRFTGSGSGADFTLTISNVQSEDLAEYFCQQYNSFPYTFGGGTKLEIK

>  <Result>
no binding

$$$$
